- Tested on: SK-MEL-5 melanoma
- assay name: NCI tumour cell line growth inhibition, 48 h
Given measured TGI, output rule met if it is greater than or equal to 20 µM and rule not met if not.

Task: Please indicate if the recorded TGI for NCCCNc1nc2ccccc2c2c(=O)c3cc(OC(F)(F)F)ccc3sc12 meets or exceeds 20 µM.
Output: rule not met

Task: Please indicate if the recorded TGI for CCOP(=O)(Cc1ccc(CP(=O)(OCC)OCC)n1C)OCC meets or exceeds 20 µM.
Output: rule met

Task: Please indicate if the recorded TGI for COC(=O)/C=C/c1cc(O)c2oc(-c3ccc(O)c(O)c3)c(C(=O)OC)c2c1 meets or exceeds 20 µM.
Output: rule not met

Task: Please indicate if the recorded TGI for O=C(O)CNc1cc(-c2ccccc2)nc(NCC(=O)O)n1 meets or exceeds 20 µM.
Output: rule met

Task: Please indicate if the recorded TGI for CC(C)c1ccc(Nc2ccc3c(OCCCN4CCN(C)CC4)cccc3n2)cc1 meets or exceeds 20 µM.
Output: rule met

Task: Please indicate if the recorded TGI for CC(C)(C)OC(=O)NCC(O)CNC(=O)OC(C)(C)C meets or exceeds 20 µM.
Output: rule met

Task: Please indicate if the recorded TGI for CC1OC(n2cc(F)c(=O)[nH]c2=O)C=CC1O (configuration not stated) meets or exceeds 20 µM.
Output: rule met

Task: Please indicate if the recorded TGI for CC1(CCCO)CCCCCC(C)(CCCO)C1=O (configuration not stated) meets or exceeds 20 µM.
Output: rule met

Task: Please indicate if the recorded TGI for CC1CC(N)=Nc2ccccc2N1 (configuration not stated) meets or exceeds 20 µM.
Output: rule met

Task: Please indicate if the recorded TGI for CC(=O)c1c2c(cc3c1CC1(Cc4ccccc4C1=O)C3)CCC2 (configuration not stated) meets or exceeds 20 µM.
Output: rule met

Task: Please indicate if the recorded TGI for Clc1coc2nc3ccccc3c(Nc3ccc4c(c3)OCO4)c12 meets or exceeds 20 µM.
Output: rule not met

Task: Please indicate if the recorded TGI for O=C(CCCn1ccnc1[N+](=O)[O-])NCCn1cncc1[N+](=O)[O-] meets or exceeds 20 µM.
Output: rule met
